B1: CPEB3 Ribozyme (parent)
chain: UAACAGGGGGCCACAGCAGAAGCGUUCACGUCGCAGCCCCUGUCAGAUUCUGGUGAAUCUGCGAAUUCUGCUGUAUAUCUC

# Variants of: B1
# assay-procedure: self-cleavage, relative activity (ratio to wild type); higher = more cleavage; in vitro, sequencing

variant-id | self-cleavage
U1C U51C | 0.7
A20C C62U | 0.12
C40U A56C | 0.32
G9C A20G | 0.06
A18G C29U | 0.42
U43C C71G | 0.28
G33C U60A | 0.25
A35G C38G | 0.96
G63A G73A | 1.34
A15G U60C | 0.33
A5U U49C | 0.55
A20C U60C | 0.17
C32U C68U | 0.2
U48A U72G | 0.58
A35C U72C | 1.14
G19A C29G | 0.24
C29U A47G | 0.55
A13U C17U | 0.92
G33U A75U | 0.81
A2U A18G | 0.89
C32G U51A | 0.04
A28G A45C | 0.33
